These data points were gathered from patent US11166954B2.

- assay_procedure: In vivo pharmacokinetics (PK) in cynomolgus macaques
- Design: species or system male cynomolgus macaques
- protocol_conditions: male, cynomolgus monkey, 0.5 mg/kg; cynomolgus macaque, iv, 0.50 mg/kg, plasma
- Experimental: The test compounds were administrated to male cynomolgus macaques by intravenous (iv) and by gavage (po), respectively, the doses of the iv and po administration were respectively 0.5 mg/kg and 2.5 mg/kg, the solvent system for iv administration was 5% DMSO:5% solutol:90% physiological saline, and the solvent system for po administration was 0.5% MC. Blood was collected at multiple time points after iv administration and po administration for the PK study. […]
endpoint_label: Cmax (ng/mL)
Write the answer as a number in ng/mL, unit excluded.

Can you look up the measured Cmax of `COC(=O)C1=C(CN2CCO[C@H](/C=C/C(=O)O)C2)NC(c2nccs2)=N[C@H]1c1ccc(F)cc1Cl` for me?
1670

---

- assay_procedure: Cytotoxicity detection (CellTiter-Glo)
- Type: cell-based
- protocol_conditions: human, HepG2.2.15 cells, highest concentration 150 μM
Would you mind telling me the reported CC50 at 4 days of each entry?

Can you look up the measured CC50 at 4 days of CCOC(=O)C1=C(CN2CCOCC2/C=C/C(=O)O)NC(c2nccs2)=N[C@H]1c1ccc(F)cc1Cl (stereo partly drawn) for me?
> 150 µM

Repeat with `CCOC(=O)C1=C(CN2C[C@@H](F)[C@H](OCC(=O)O)C2)NC(c2nccs2)=N[C@H]1c1ccc(F)cc1Cl`
> 150 µM

Repeat with `CCOC(=O)C1=C(CN2CCO[C@H](/C=C/C(=O)O)C2)NC(c2nccs2)=N[C@H]1c1ccc(F)cc1Cl`
> 150 µM
